Test system: SF-295 CNS
Assay: NCI-60 one-dose screen, 48 h
Conditions: 10 µM unless noted
About 83,000 compounds went through this panel and 20% of them were active in at least one assay; those are over-represented in the sample as a whole. Active and inactive are the calls of the source. The calls were made as follows: active = growth percent below 10; inactive = the rest.
Possible outcomes: 1 for active, -1 for inactive

| compound | discrete_label |
| --- | --- |
| CCN(Cc1ccccc1)c1ccc(SC#N)cc1 | -1 |
| CCn1cc(C(=O)O)c(=O)c2cc(F)c(N3CCN(S(=O)(=O)c4c(C)cc(C)cc4C)CC3)cc21 | -1 |
| O=C(c1ccncc1)N1N=C(c2ccc(Cl)cc2)CC1c1c[nH]c2ccccc12 (stereo unspecified) | -1 |
| CC/C=C\C/C=C\C[C@H](O)C/C=C1/C(=O)C=C[C@H]1C/C=C\CCC(=O)OC | -1 |
| COc1cc(CNC(=O)CCSc2nc3ccccc3c(=O)n2Cc2cc(OC)c(OC)c(OC)c2)cc(OC)c1OC | -1 |
| NC(=O)c1ccc2c(c1)OCO2 | -1 |
| Cc1ccc(C(=O)c2sc3nc4c(cc3c2N)CCCC4)c(C)c1 | 1 |
| O=C(NNC(=S)Nc1ccccc1)c1ccccn1 | -1 |
| COc1cc(OC)c(C(=O)/C=C/c2cccc(C#N)c2)c(OC)c1 | 1 |
| COc1ccc(OC)c(C(=O)c2oc3ccc(Br)cc3c2N)c1 | 1 |
| CCCCn1c(=O)c(C2CNC(=O)c3ccccc3N2)cc2ccccc21 (stereo unspecified) | -1 |
| Cc1cnc(NC(=O)C(Cc2ccccc2)NC(=O)c2ccccc2)s1 (stereo unspecified) | -1 |
| CC(C)(C)c1ccc(S(=O)(=O)Oc2ccc3c4c(c(=O)oc3c2)CCCCC4)cc1 | 1 |
| O=S(=O)(NCCNc1nccc(-c2c(-c3ccccc3)nc3sccn23)n1)c1ccc(O)cc1 | -1 |
| COc1cc(NC(=O)c2cc3ccccc3nc2Nc2ccc(F)cc2)cc(OC)c1OC | -1 |
| COc1ccc(/C(=N/O)c2cc(OC)c(OC)c(OC)c2)c(OC)c1N | 1 |
| O=C(CNC(=O)c1cccc2ccccc12)Nc1ccccc1Oc1ccccc1 | -1 |
| Cc1ccc(C2=NN(c3ccc(S(N)(=O)=O)cc3)C(c3cn(-c4ccccc4)nc3-c3ccccc3)C2)cc1 (stereo unspecified) | -1 |
| COc1cccc(NC(=O)c2sc3nc4c(cc3c2N)CCCC4)c1 | -1 |
| COc1cc(CNC(=O)CSc2nc3ccccc3c(=O)n2Cc2cc(OC)c(OC)c(OC)c2)cc(OC)c1OC | -1 |
| CCN1C(=O)N(CC)C2C1NN=c1s/c(=C\c3ccccn3)c(=O)n12 (stereo unspecified) | 1 |

###

System: IGROV1 ovarian
Assay: NCI-60 one-dose screen, 48 h
Settings: 10 µM unless noted
The panel holds about 83,000 compounds, 20% with a hit somewhere; the sample as a whole holds those more often. Active and inactive are the calls of the source. The calls were made as follows: active = growth percent below 10; inactive = the rest.
Possible outcomes: active, inactive

| compound | discrete_label |
| --- | --- |
| O=C(Nc1cccc(Cl)c1)c1cc([N+](=O)[O-])ccc1O | inactive |
| Cc1ccc(C2=NN(c3ccc(S(N)(=O)=O)cc3)C(c3cn(-c4ccccc4)nc3-c3ccccc3)C2)cc1 (stereo not given) | inactive |
| COc1ccc(-n2c(C)cc(-c3ccccc3)c2C)cc1 | inactive |
| CCSc1nnc(NC(=O)Cc2ccc(Cl)cc2)s1 | active |
| CCCCCCCC/C=C\CCCCCCCCOc1ccccc1CCOP(=O)(O)OCC[N+](C)(C)C | active |
| COc1cc(CNC(=O)CSc2nc3ccccc3c(=O)n2Cc2cc(OC)c(OC)c(OC)c2)cc(OC)c1OC | inactive |
| O=C(CNc1c(Cl)cccc1Cl)Nc1ccc(-c2nc3ccccc3s2)cc1 | inactive |
| CCCCCCCCCCCCOB(OCCCCCCCCCCCC)OCCCCCCCCCCCC | inactive |
| O=C1c2ccccc2C(=O)c2c1oc1oc3c(c(=O)c21)c(=O)n(-c1ccccc1)c1ccccc31 | inactive |
| Clc1ccc(/C=C/c2nc(N3CCOCC3)c3nc(Cl)c(Cl)cc3n2)cc1 | inactive |
